- measured.on: HPK1 (Homo sapiens)
- Sequence (Q92918 whole entry): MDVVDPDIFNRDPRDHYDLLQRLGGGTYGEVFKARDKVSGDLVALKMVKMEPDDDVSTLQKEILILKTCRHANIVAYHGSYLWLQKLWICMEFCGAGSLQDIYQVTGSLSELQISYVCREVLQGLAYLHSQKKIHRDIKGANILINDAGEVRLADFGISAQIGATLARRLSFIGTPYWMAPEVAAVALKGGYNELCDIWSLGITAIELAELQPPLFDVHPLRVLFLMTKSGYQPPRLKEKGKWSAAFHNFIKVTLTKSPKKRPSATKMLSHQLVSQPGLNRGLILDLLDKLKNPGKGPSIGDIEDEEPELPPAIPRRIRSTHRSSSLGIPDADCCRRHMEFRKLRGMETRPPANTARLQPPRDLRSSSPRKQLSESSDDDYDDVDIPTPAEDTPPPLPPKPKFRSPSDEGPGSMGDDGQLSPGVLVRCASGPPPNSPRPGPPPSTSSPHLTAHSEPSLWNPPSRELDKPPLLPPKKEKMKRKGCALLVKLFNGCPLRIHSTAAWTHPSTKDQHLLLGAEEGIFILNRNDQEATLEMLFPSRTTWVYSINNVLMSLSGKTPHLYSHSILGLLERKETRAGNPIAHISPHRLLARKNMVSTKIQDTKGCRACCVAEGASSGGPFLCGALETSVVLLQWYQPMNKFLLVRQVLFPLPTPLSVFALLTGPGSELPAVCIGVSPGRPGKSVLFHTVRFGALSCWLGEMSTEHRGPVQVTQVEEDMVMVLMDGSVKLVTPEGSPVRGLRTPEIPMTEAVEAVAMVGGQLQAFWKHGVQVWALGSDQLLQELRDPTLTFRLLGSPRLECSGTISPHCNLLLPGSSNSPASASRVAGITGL
- assay.protocol: SLP76 phosphorylation assay (intracellular HPK1 inhibitory activity, p-SLP76 Ser376 sandwich ELISA)
- experimental.setup: p-SLP76 IC50(nM), Jurkat, Clone E6-1 cells; 1 h compound pre-incubation, anti-CD3 beads stimulation 20 min; SLP76 phosphorylation at S376
readout.label: log10 IC50 (log10 of the value in nM)
Recall that a logarithmic scale is used here: each number is log10 of IC50 in nM.

Answered examples (5):
• CCNC(=O)N1CCc2cc(-c3cnc4[nH]cc(C(C)C)c4c3)cc([C@@H]3COCCN3)c2C1 = 2.20
• CCN1Cc2cc(-c3cnc4[nH]cc(C)c4c3)cc([C@@H]3CCCN3)c2CC1=O = 2.43
• Cc1cn(C2CC2)nc1C(=O)N1CCc2cc(-c3cnc4[nH]cc(C)c4c3)cc([C@@H]3CCCN3)c2C1 [Compound Z342] = 2.43
• CCNC(=O)N1CCc2cc(-c3cnc4[nH]cc(C)c4c3)cc([C@@H]3CCCN3)c2C1 = 2.12
• Cc1c[nH]c2ncc(-c3cc4c(c([C@@H]5CCCN5)c3)CCN(C(=O)[C@H]3CCOC3)C4)cc12 = 1.98

Hi team, please reply with log10 IC50 for each item in this list.
1. N#Cc1c[nH]c2ncc(-c3cc4c(c([C@@H]5CCCN5)c3)COCC4)cc12
2. Cc1c[nH]c2ncc(-c3cc4c(c([C@@H]5CCCN5)c3)CN(C(=O)Nc3cccnc3)C4)cc12
3. Cc1c[nH]c2ncc(-c3cc4c(c([C@@H]5CCCN5)c3)CN(C(=O)N3CCOCC3)CC4)cc12
4. Cc1c[nH]c2ncc(-c3cc4c(c([C@@H]5CCCN5)c3)CCOC4)cc12

Result:
2.69
3.38
1.79
2.68
